test: Novel Modifiers of Survival Motor Neuron (SMN) Protein: Gene Identification via Genome-wide siRNA Screen; conditions: HEK293T SMN2-luciferase reporter, siRNA knockdown, 72 h; actives lie on both sides;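 note: luminescence tracks full-length SMN protein made from the SMN2 reporter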
The campaign covered roughly 31,000 sequences. About 1,400 (4.5%) were called active. The sample as a whole holds a higher share of actives than the screen did.
# Lookup of reported median seed-adjusted z-score keyed by entry
Number, no unit, nothing else.

monomerSequence: CUACGGCUACGUCUACAUCTT against GPR25
testReadout: median seed-adjusted z-score
testValue: 0.377
--
monomerSequence: UAAUAAAGCGGAUUCUAGATT against THAP7
testReadout: median seed-adjusted z-score
testValue: -0.0317
--
monomerSequence: GCUGUGCGUUCUUCACAAATT against RAB17
testReadout: median seed-adjusted z-score
testValue: 0.473

// GUUACGACCUGGAAGAUUATT against SPATA5L1 : median seed-adjusted z-score value = 0.252

// GAACCUCAGUUGAGUAUUUTT against RPE : median seed-adjusted z-score value = 0.616

###

# Lookup of reported median seed-adjusted z-score keyed by entry
assay: Novel Modifiers of Survival Motor Neuron (SMN) Protein: Gene Identification via Genome-wide siRNA Screen; conditions: HEK293T SMN2-luciferase reporter, siRNA knockdown, 72 h; actives lie on both sides;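 note: luminescence tracks full-length SMN protein made from the SMN2 reporter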
About 1,400 (4.5%) of roughly 31,000 sequences were called active. Only a selection was taken, and actives are over-represented in it overall.
Number, no unit, nothing else.

Worked examples, 2 sequences total:
monomerSequence: GUUUUUGUCCUAGCCCAUATT against OTUD7A
median seed-adjusted z-score: -0.53
--
monomerSequence: CAAAGUGGAUUCAAAGAUUTT against PRKCH
median seed-adjusted z-score: 0.761

Please look at the following sequence next.
// GAGCAAUGCUGACUAUCAATT against CNOT7 : median seed-adjusted z-score value = 0.716

###

assay: Novel Modifiers of Survival Motor Neuron (SMN) Protein: Gene Identification via Genome-wide siRNA Screen; details: HEK293T SMN2-luciferase reporter, siRNA knockdown, 72 h; actives lie on both sides;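 note: luminescence tracks full-length SMN protein made from the SMN2 reporter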
Out of some 31,000 sequences screened, about 1,400 (4.5%) were called active.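 The calls were made as follows: active = median seed-adjusted z-score above 1 or below -1; inactive = the rest.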 The entries come from a sample that favours actives as a whole.
One label from this list, please: label 1 for active, label 0 for inactive

Consider the worked cases shown below.
monomerSequence: CAUAUAUGAUUGCAUCAAATT against ACTL6A
classAssignment: label 1

monomerSequence: CGAUGUUGAAGUUACACCATT against ATP13A4
classAssignment: label 1

monomerSequence: CCACGUUUUGAUCAACAAUTT against RDH11
classAssignment: label 0

**Query** Please share the test call associated with GGAUGGAGACUACGAGUUUTT against STK4 .
**Result** label 0

**Query** Please share the test call associated with CGCAUUGCUUACUUACAAATT against PCDHA10 .
**Result** label 0

**Query** Please share the test call associated with CAUGGUCACUGCUAGUGUATT against MBOAT1 .
**Result** label 1

###

# Lookup of reported median seed-adjusted z-score keyed by entry
assay: Novel Modifiers of Survival Motor Neuron (SMN) Protein: Gene Identification via Genome-wide siRNA Screen; settings: HEK293T SMN2-luciferase reporter, siRNA knockdown, 72 h; actives lie on both sides;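 note: luminescence tracks full-length SMN protein made from the SMN2 reporter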
Hit rate of the full screen: of about 31,000 sequences, about 1,400 (4.5%) were called active. The entries come from a sample that favours actives as a whole.
Number, no unit, nothing else.

Worked examples, 2 sequences total:
monomerSequence: CCGCCUUUCAAGAACGUAATT against IARS
median seed-adjusted z-score: -0.198

monomerSequence: GGCUAUACAGGGUAGACAATT against PXDNL
median seed-adjusted z-score: -0.186

Please look at the following sequence next.
// GGACUUGGAUUCGAGGAUATT against COL15A1 : median seed-adjusted z-score value = 0.161

###

experiment: Novel Modifiers of Survival Motor Neuron (SMN) Protein: Gene Identification via Genome-wide siRNA Screen; conditions: HEK293T SMN2-luciferase reporter, siRNA knockdown, 72 h; actives lie on both sides;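 note: luminescence tracks full-length SMN protein made from the SMN2 reporter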
Screen size: about 31,000 sequences; about 1,400 (4.5%) were called active. This is one part of a sample in which actives are shown more often than they occur.
median seed-adjusted z-score under -0.4 gets fulfilled, anything at or over -0.4 gets not fulfilled.

Consider the worked cases shown below.
monomerSequence: GCACGAGCCUUUCUCCAGUTT against RNASE7
classAssignment: not fulfilled

monomerSequence: CAACUGUUCCUGUAUUGAATT against SLCO4C1
classAssignment: not fulfilled

**Query** Problem: For the sequence GCCUGGUUUUGGAUACAAATT against LTA4H , is median seed-adjusted z-score under -0.4?
**Result** fulfilled

**Query** Problem: For the sequence GAAGAUGUAUGGAAUUCUUTT against DARC , is median seed-adjusted z-score under -0.4?
**Result** not fulfilled

**Query** Problem: For the sequence CAGCUGUUGUUGAGCGAAUTT against CASP2 , is median seed-adjusted z-score under -0.4?
**Result** not fulfilled

**Query** Problem: For the sequence AAACCAUCAUGCUGAGGUGTT against FCGR2A , is median seed-adjusted z-score under -0.4?
**Result** not fulfilled

**Query** Problem: For the sequence GGUACCUGCUGAUUCAGAATT against SLC2A5 , is median seed-adjusted z-score under -0.4?
**Result** fulfilled

**Query** Problem: For the sequence GGUGCAAUCAGAUAACAUATT against PPAPDC1A , is median seed-adjusted z-score under -0.4?
**Result** not fulfilled

###

experiment: Novel Modifiers of Survival Motor Neuron (SMN) Protein: Gene Identification via Genome-wide siRNA Screen; conditions: HEK293T SMN2-luciferase reporter, siRNA knockdown, 72 h; actives lie on both sides;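 note: luminescence tracks full-length SMN protein made from the SMN2 reporter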
About 1,400 (4.5%) of roughly 31,000 sequences were called active. The entries come from a sample that favours actives as a whole.
median seed-adjusted z-score under 0 gets Satisfied, anything at or over 0 gets Not satisfied.

Consider the worked cases shown below.
monomerSequence: CCAUCUCCAGUUGUAUUUUTT against CHKA
classAssignment: Satisfied
//
monomerSequence: GGAUCGGAUGGAUAAGAAUTT against CTTN
classAssignment: Satisfied
//
monomerSequence: GGUUGAUGCAGACAACAAATT against LGTN
classAssignment: Not satisfied
//
monomerSequence: GAUGCUGGUUGGUUCGAUATT against MFSD4
classAssignment: Satisfied
//
monomerSequence: AAUUCAAGCUAUGAAGAUATT against ACO2
classAssignment: Satisfied

**Query** Problem: For the sequence CAACGUAUCAGAUUGAGAATT against ZNF281 , is median seed-adjusted z-score under 0?
**Result** Not satisfied

**Query** Problem: For the sequence CAUUGGAAUUCUUUCAAUATT against APTX , is median seed-adjusted z-score under 0?
**Result** Satisfied

**Query** Problem: For the sequence GAAUAGAGAUCAAAUUCCATT against CD163 , is median seed-adjusted z-score under 0?
**Result** Not satisfied

**Query** Problem: For the sequence GUUCUACCGUGGACAGCAATT against CLCN1 , is median seed-adjusted z-score under 0?
**Result** Not satisfied

**Query** Problem: For the sequence CGCUGUUCAAUGAACUAUATT against GBA2 , is median seed-adjusted z-score under 0?
**Result** Not satisfied

**Query** Problem: For the sequence CAAGCUCUUUGGUCAAGAATT against SNX4 , is median seed-adjusted z-score under 0?
**Result** Satisfied

**Query** Problem: For the sequence CUACCAAUAUGAUAGGUUATT against DDX17 , is median seed-adjusted z-score under 0?
**Result** Not satisfied

**Query** Problem: For the sequence GCAUCUCAAUAUCAACAAUTT against LINGO2 , is median seed-adjusted z-score under 0?
**Result** Not satisfied

###

Test: Novel Modifiers of Survival Motor Neuron (SMN) Protein: Gene Identification via Genome-wide siRNA Screen;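 note: luminescence tracks full-length SMN protein made from the SMN2 reporter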
Details: HEK293T SMN2-luciferase reporter, siRNA knockdown, 72 h; actives lie on both sides
Method: Spinal muscular atrophy (SMA) is the most common neuromuscular autosomal recessive disorder and one of the leading genetic causes of infant death. […] Briefly, 1 pmol of each siRNA was spotted to a well of a 384-well plate (Corning, Corning, NY) and 20 microL of serum-free DMEM containing […] of Lipofectamine RNAiMax (Life Technologies, Carlsbad, CA) was then added to each well. […] Raw luminescence reads were normalized to Ambion(R) Silencer(R) Negative Control #2 siRNA, then log10 transformed. […]
Out of some 31,000 sequences screened, about 1,400 (4.5%) were called active.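 The calls were made as follows: active = median seed-adjusted z-score above 1 or below -1; inactive = the rest.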 Only a selection was taken, and actives are over-represented in it overall.
One label from this list, please: active, inactive

Consider the worked cases shown below.
monomerSequence: GGCUAAGAAUGACCAUUAUTT against NPR2
classAssignment: inactive

monomerSequence: CGAGGACACCCUUAGCAGUTT against ADRA1B
classAssignment: inactive

monomerSequence: CCCUGUCCUUAGCACUCUATT against GFI1B
classAssignment: inactive

monomerSequence: CAACAUCUAUGAUUGGAAUTT against RFXANK
classAssignment: inactive

**Query** Please share the test call associated with CUUGUGUUCUGAGAAUACATT against KRT83 .
**Result** active

**Query** Please share the test call associated with ACUACCUUCUCAUCAAGGATT against CCL19 .
**Result** inactive

**Query** Please share the test call associated with GCAAGACCUAUGAAACGAUTT against CADPS .
**Result** inactive
